# target system: hMC2 receptor (crude hMC2R membranes from CRE-bla-CHO-K1 cells stably expressing hMC2 receptor and hMRAP accessory protein) (Homo sapiens, UniProt Q01718)
# Construct: crude membrane fractions
# Sequence (Q01718 whole entry): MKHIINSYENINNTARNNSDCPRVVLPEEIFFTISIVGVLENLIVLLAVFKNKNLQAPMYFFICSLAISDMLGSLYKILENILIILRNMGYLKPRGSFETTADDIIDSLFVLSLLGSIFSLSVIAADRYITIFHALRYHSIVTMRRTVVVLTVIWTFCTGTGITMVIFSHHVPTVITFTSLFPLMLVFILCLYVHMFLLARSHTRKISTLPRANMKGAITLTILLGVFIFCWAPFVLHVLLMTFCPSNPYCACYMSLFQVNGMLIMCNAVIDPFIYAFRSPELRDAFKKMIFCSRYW
# Sequence (Q8TCY5 whole entry partner): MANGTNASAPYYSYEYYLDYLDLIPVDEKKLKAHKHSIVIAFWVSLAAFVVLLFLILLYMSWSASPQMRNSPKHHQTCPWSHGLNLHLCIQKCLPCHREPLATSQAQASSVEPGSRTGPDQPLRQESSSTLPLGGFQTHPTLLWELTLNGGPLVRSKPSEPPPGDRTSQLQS
# assay summary: hMC2 membrane binding assay ([125I]ACTH (1-39) Tyr23, SPA)
# experimental context: displacement of 0.2 nM [125I]ACTH (1-39) Tyr23 from hMC2R membranes, 1.5 hours at room temperature; read-out: MC2R binding potency
We begin with a simple list: items and their reported Ki.
endpoint name: Ki

[
  {
    "molecule": "COc1ncccc1-c1ccc(C2(C(=O)N[C@H]3CCN(C)C3)CCN(c3ccc(C(F)(F)F)cc3Cl)CC2)cn1 [Compound 1-142]",
    "obs value": "< 10 nM"
  },
  {
    "molecule": "CCOc1ncccc1-c1ncc(C2(C(=O)N[C@@H](C)CNC)CCN(c3ccc(C(F)(F)F)cc3C#N)CC2)cc1F [Compound 1-320]",
    "obs value": "< 10 nM"
  },
  {
    "molecule": "COc1ccccc1-c1ccc(C2(C(=O)NC[C@@H]3C[C@H](F)CN3C)CCN(c3ccc(C(F)(F)F)cc3C#N)CC2)cn1 [Compound 1-249]",
    "obs value": "< 10 nM"
  },
  {
    "molecule": "CCOc1ccccc1-c1ccc(C2(C(=O)NCCNC)CCN(c3ccc(C(F)(F)F)cc3F)CC2)cn1 [Compound 1-227]",
    "obs value": "< 10 nM"
  },
  {
    "molecule": "CN1CC[C@@H](NC(=O)C2(c3ccc(-c4ccccc4OC(F)(F)F)nc3)CCN(c3ccc(C(F)(F)F)cc3C#N)CC2)C1 [Compound 1-71]",
    "obs value": "< 10 nM"
  },
  {
    "molecule": "CCOc1ccccc1-c1ccc(C2(C(=O)NC3CN(C)C3)CCN(c3ccc(C(F)(F)F)cc3C#N)CC2)nn1 [Compound 1-136]",
    "obs value": "< 10 nM"
  },
  {
    "molecule": "CCOc1ccccc1-c1ccc(C2(NC(=O)[C@H]3CCN(C)C3)CCN(c3ccc(C(F)(F)F)cc3C#N)CC2)cn1 [Compound 2-27]",
    "obs value": "< 10 nM"
  },
  {
    "molecule": "CN1CC[C@@H](NC(=O)C2(c3ccc(-c4cccc5ccn(C)c45)nc3)CCN(c3ccc(C(F)(F)F)cc3C#N)CC2)C1 [Compound 1-190]",
    "obs value": "10 to 100 nM"
  },
  {
    "molecule": "CCOc1ncccc1-c1ccc(C2(C(=O)N[C@H]3CCN(C)C3)CCN(c3ccc(C(F)(F)F)cc3)CC2)cn1 [Compound 1-33]",
    "obs value": "< 10 nM"
  },
  {
    "molecule": "CN1CC[C@](C)(NC(=O)C2(c3ccc(-c4cccn4C)nc3)CCN(c3ccc(C(F)(F)F)cc3C#N)CC2)C1 [Compound 1-253]",
    "obs value": "< 10 nM"
  },
  {
    "molecule": "COc1ccccc1-c1ccc(C2(C(=O)NC[C@@H]3C[C@H](F)CN3)CCN(c3ccc(C(F)(F)F)cc3C#N)CC2)cn1 [Compound 1-246]",
    "obs value": "< 10 nM"
  },
  {
    "molecule": "CNCCC(=O)NC1(c2cnc(-c3ccccc3OC)c(F)c2)CCN(c2ccc(C(F)(F)F)cc2C#N)CC1 [Compound 2-63]",
    "obs value": "< 10 nM"
  },
  {
    "molecule": "CCOc1ncccc1-c1ccc(C2(C(=O)NCC3CN(C)C3)CCN(c3ccc(C(F)(F)F)cc3C#N)CC2)cn1 [Compound 1-18]",
    "obs value": "< 10 nM"
  },
  {
    "molecule": "COc1ccccc1-c1ncc(C2(C(=O)N[C@H]3CCN(C)C3)CCN(c3ccc(C(F)(F)F)nc3C#N)CC2)cc1F [Compound 1-128]",
    "obs value": "< 10 nM"
  },
  {
    "molecule": "COc1ccccc1-c1ccc(C2(C(=O)NCCN3CCC3)CCN(c3ccc(C(F)(F)F)cc3C#N)CC2)cn1 [Compound 1-245]",
    "obs value": "< 10 nM"
  },
  {
    "molecule": "COc1ccc(F)cc1-c1ccc(C2(C(=O)N[C@H]3CCN(C)C3)CCN(c3ccc(C(F)(F)F)cc3Cl)CC2)cn1 [Compound 1-155]",
    "obs value": "< 10 nM"
  },
  {
    "molecule": "CCOc1ncccc1-c1ccc(C2(OCCN(C)C)CCN(c3ccc(C(F)(F)F)cc3C#N)CC2)cc1 [Compound 2-1]",
    "obs value": "10 to 100 nM"
  },
  {
    "molecule": "CCOc1ncccc1-c1ccc(C2(C(=O)NC[C@@H](C)N(C)C)CCN(c3ccc(C(F)(F)F)cc3C#N)CC2)cn1 [Compound 1-333]",
    "obs value": "< 10 nM"
  },
  {
    "molecule": "COc1ccc(F)cc1-c1ncc(C2(C(=O)N[C@H]3CCN(C)C3)CCN(c3ccc(C(F)(F)F)cc3C#N)CC2)cc1F [Compound 1-195]",
    "obs value": "< 10 nM"
  },
  {
    "molecule": "CCOc1ncccc1-c1ccc(C2(C(=O)N[C@H]3CCN(C)C3)CCN(c3ccc(C(F)(F)F)cc3Cl)CC2)cn1 [Compound 1-141]",
    "obs value": "< 10 nM"
  },
  {
    "molecule": "CC(C)CCn1nccc1-c1ccc(C2(C(=O)N[C@@H]3CCN(C)C3)CCN(c3ccc(C(F)(F)F)cc3C#N)CC2)cn1 [Compound 1-70]",
    "obs value": "10 to 100 nM"
  },
  {
    "molecule": "CO[C@@H]1CN(C)C[C@H]1NC(=O)C1(c2ccc(-c3cccn3C)nc2)CCN(c2ccc(C(F)(F)F)cc2C#N)CC1 (racemic) [Compound 1-268]",
    "obs value": "< 10 nM"
  },
  {
    "molecule": "CN1CC[C@@H](NC(=O)C2(c3ccc(-c4ccccc4C(C)(F)F)nc3)CCN(c3ccc(C(F)(F)F)cc3C#N)CC2)C1 [Compound 1-84]",
    "obs value": "10 to 100 nM"
  },
  {
    "molecule": "CN1CC[C@H](NC(=O)C2(c3cnc(-c4cccn4C)c(F)c3)CCN(c3ccc(C(F)(F)F)cc3C#N)CC2)C1 [Compound 1-161]",
    "obs value": "< 10 nM"
  },
  {
    "molecule": "CN(C)CCNC(=O)C1(c2ccc(-c3cccn3C)nc2)CCN(c2ccc(C(F)(F)F)cc2F)CC1 [Compound 1-276]",
    "obs value": "< 10 nM"
  },
  {
    "molecule": "Cn1cccc1-c1ccc(C2(C(=O)N[C@H]3CCNC3)CCN(c3ccc(C(F)(F)F)cc3C#N)CC2)cn1 [Compound 1-152]",
    "obs value": "< 10 nM"
  }
]
